Measured IC50 values are reported for all entries that follow.
Assayed target: Recombinant JAK3 (Homo sapiens)
Construct: purchased Carna Biosciences
Sequence (P52333 whole entry): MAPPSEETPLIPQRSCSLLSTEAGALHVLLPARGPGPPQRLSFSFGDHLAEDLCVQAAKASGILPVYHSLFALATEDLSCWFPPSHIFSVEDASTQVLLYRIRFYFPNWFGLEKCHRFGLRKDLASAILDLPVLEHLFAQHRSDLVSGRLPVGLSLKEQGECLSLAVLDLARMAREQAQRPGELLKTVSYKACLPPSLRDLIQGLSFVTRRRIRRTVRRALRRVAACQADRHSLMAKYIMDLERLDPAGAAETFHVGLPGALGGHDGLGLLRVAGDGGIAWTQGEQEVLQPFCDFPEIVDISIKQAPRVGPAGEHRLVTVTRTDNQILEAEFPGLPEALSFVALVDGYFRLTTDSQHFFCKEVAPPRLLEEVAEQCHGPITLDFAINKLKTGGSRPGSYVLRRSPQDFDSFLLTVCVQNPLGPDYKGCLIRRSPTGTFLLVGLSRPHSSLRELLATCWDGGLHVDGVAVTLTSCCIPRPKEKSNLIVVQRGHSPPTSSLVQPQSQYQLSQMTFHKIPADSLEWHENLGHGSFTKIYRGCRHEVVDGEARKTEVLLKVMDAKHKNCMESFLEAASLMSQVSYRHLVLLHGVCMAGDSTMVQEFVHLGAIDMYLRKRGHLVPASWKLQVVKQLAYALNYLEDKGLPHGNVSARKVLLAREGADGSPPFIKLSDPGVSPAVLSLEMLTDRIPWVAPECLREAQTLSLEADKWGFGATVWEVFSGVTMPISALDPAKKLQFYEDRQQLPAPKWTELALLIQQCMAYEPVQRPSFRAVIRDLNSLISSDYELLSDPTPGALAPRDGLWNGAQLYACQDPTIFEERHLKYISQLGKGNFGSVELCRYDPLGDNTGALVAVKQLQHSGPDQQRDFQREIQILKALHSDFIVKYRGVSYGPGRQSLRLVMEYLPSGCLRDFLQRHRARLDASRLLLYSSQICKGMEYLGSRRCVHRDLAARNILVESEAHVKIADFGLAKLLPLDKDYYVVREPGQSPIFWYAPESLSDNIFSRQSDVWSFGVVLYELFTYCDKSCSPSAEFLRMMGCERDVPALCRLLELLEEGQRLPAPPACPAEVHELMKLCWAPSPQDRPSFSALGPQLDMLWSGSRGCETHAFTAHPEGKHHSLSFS
Assay remarks: JAK biochemical assay (LANCE Ultra TR-FRET), JAK3
Condition summary: recombinant JAK3, TR-FRET; read-out: Biochemical Assay (μM) JAK3

Known results for molecules:
[[record]]
molecule = "CS(=O)(=O)CCC(c1ccc(-n2cc(-c3ccnc4[nH]cnc34)cn2)nc1)C(F)(F)F (stereo not shown) [Example 1174]"
assayed_target = "Recombinant JAK3 (Homo sapiens)"
readout_label = "IC50"
reported_measurement = "0.055 µM"

[[record]]
molecule = "COC(c1ccc(-n2cc(-c3ccnc4[nH]cnc34)cn2)nc1)C(F)(F)F (stereo not shown) [Example 1119]"
assayed_target = "Recombinant JAK3 (Homo sapiens)"
readout_label = "IC50"
reported_measurement = "0.07 µM"

[[record]]
molecule = "FC(F)(F)[C@H](c1ccc(-n2cc(-c3ccnc4[nH]cnc34)cn2)nc1)C1COC1 (single isomer, unassigned) [Example 1185]"
assayed_target = "Recombinant JAK3 (Homo sapiens)"
readout_label = "IC50"
reported_measurement = "> 0.1 µM"

[[record]]
molecule = "CNCCC(c1ccc(-n2cc(-c3ccnc4[nH]cnc34)cn2)nc1)C(F)(F)F (stereo not shown) [Example 1152]"
assayed_target = "Recombinant JAK3 (Homo sapiens)"
readout_label = "IC50"
reported_measurement = "< 0.1 µM"

[[record]]
molecule = "c1cc(-c2cnn(Cc3cnco3)c2)c2nc[nH]c2n1 [Example 1077]"
assayed_target = "Recombinant JAK3 (Homo sapiens)"
readout_label = "IC50"
reported_measurement = "> 1 µM"


Quick one: IC50 of N#CCc1coc(-n2cc(-c3ccnc4[nH]cnc34)cn2)n1 [Example 1075] ?
< 0.5 µM

For the molecule shown here, O=C(NCCC(c1ccc(-n2cc(-c3ccnc4[nH]cnc34)cn2)nc1)C(F)(F)F)C1CC1 (stereo not shown) [Example 1149] , give the reported IC50.
< 0.1 µM
